Entries and their IC50
- assayed target: BCR-NTRK3 BaF3 cells (Homo sapiens, UniProt Q16288)
- Construct: fused on or other part: P11274 (Breakpoint cluster region protein)
- Sequence (Q16288 whole entry, the tested form may be a part): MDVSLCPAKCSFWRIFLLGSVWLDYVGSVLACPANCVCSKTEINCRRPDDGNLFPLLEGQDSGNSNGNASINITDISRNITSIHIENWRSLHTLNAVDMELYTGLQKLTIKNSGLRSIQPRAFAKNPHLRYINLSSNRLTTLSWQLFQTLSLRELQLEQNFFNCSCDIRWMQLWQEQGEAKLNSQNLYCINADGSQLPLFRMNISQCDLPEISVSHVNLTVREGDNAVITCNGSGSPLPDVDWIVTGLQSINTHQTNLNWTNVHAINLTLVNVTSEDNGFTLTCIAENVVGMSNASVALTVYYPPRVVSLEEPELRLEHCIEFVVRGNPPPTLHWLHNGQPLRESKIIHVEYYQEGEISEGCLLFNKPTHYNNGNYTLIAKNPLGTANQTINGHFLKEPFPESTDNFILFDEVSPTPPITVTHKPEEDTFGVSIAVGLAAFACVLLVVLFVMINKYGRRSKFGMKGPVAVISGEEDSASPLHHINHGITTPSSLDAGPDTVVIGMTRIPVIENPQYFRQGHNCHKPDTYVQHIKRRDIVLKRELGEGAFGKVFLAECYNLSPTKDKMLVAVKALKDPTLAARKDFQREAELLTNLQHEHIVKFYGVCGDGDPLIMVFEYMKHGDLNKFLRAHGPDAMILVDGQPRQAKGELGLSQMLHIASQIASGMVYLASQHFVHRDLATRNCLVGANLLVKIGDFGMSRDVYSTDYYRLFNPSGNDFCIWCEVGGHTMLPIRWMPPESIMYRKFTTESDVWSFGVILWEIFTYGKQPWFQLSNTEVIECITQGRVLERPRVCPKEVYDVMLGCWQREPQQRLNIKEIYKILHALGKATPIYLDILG
- assay text: BaF3 BCR-NTRK3 cell proliferation assay (ATPlite)
- measurement context: read-out: Inhibition of Cell Proliferation IC50, BCR/BaF3 TrkC

Look over these answered cases.
[
  {
    "smiles representation": "CCc1ccc(Nc2ccc(C(=O)c3c[nH]c4ncnc(NC5CCC5)c34)c(F)n2)cn1",
    "IC50": "< 10 nM"
  },
  {
    "smiles representation": "Cc1cnc2[nH]cc(Cc3cnc(Nc4ccc(C(O)(C(F)(F)F)C(F)(F)F)cc4)nc3)c2c1",
    "IC50": "< 10 nM"
  },
  {
    "smiles representation": "Fc1nc(NC2CCC(F)(F)CC2)ccc1Cc1c[nH]c2ncnc(NC3CC3)c12",
    "IC50": "< 100 nM"
  },
  {
    "smiles representation": "CCOc1ccc(Nc2ccc(Cc3c[nH]c4ncnc(OC)c34)c(F)n2)cn1",
    "IC50": "< 10 nM"
  }
]

**Q:** Name the value of IC50 reported for `COc1ccc(Nc2ccc(Cc3c[nH]c4ncc(C)cc34)c(F)n2)cn1` when tested on BCR-NTRK3 BaF3 cells (Homo sapiens, UniProt Q16288).
**A:** < 100 nM

**Q:** Give BCR-NTRK3 BaF3 cells (Homo sapiens, UniProt Q16288) IC50 for the following molecule: `CCOc1ncnc2[nH]cc(Cc3ccc(Nc4ccc(C)nc4)nc3F)c12`
**A:** < 100 nM

**Q:** GET IC50 where system = BCR-NTRK3 BaF3 cells (Homo sapiens, UniProt Q16288) and item = `CCOc1ccc(Nc2ccc(C(=O)c3c[nH]c4ncc(C)cc34)c(F)n2)cn1`
**A:** < 100 nM

**Q:** Check BCR-NTRK3 BaF3 cells (Homo sapiens, UniProt Q16288) data and give IC50 for `Cc1cnc2[nH]cc(Cc3cnc(Nc4ccc(C(C)(C)C)cc4)nc3)c2c1` .
**A:** < 10 nM

The measured values listed here are drawn from patent US8901118B2.
